- Assay Target: UniProt P43220
- Experimental Protocol: GLP-1R Activation - cAMP Assay
- Format: cell-based
- Settings: cAMP increase in CHO cells stably expressing GLP-1R; each compound run on one of the two cAMP assays (Assay 1 or Assay 2, not specified)
# key: entry, value: EC50

Cpd Smiles: CC1(C)COC[C@H]1n1c(Cc2cc(F)c(-c3cccc(OCc4ccc(C#N)cc4F)n3)cc2F)nc2cc(F)c(C(=O)O)cc21
EC50 [nM]: 0.112
//
Cpd Smiles: Cc1cc(Cc2nc3c(F)cc(C(=O)O)cc3n2[C@@H]2COCC2(C)C)c(Cl)cc1-c1ccc(F)c(OCc2ccc(Cl)cc2F)n1
EC50 [nM]: 0.067
//
Cpd Smiles: COc1cc(Cl)ccc1COc1cccc(-c2cc(F)c(Cc3nc4ccc(C(=O)O)cc4n3[C@@H]3COCC3(C)C)cc2F)n1
EC50 [nM]: 0.141
//
Cpd Smiles: Cc1cc(Cc2nc3ccc(C(=O)O)cc3n2[C@@H]2COCC2(C)C)c(F)cc1-c1ccnc(OCc2ccc(Cl)cc2)n1
EC50 [nM]: 0.189

###

Listed next: entries and their corresponding EC50.
- Assay Target: GLP-1R (Homo sapiens)
- Experimental Protocol: GLP-1R Activation - cAMP Assay
- Assay type: cell-based
- Settings: cAMP increase in CHO cells stably expressing GLP-1R; each compound run on one of the two cAMP assays (Assay 1 or Assay 2, not specified)

Molecule: COCCn1c(Cc2cc(F)c(-c3cccc(OCc4ccc(-c5cn(C)nn5)cc4F)n3)cc2F)nc2ccc(C(=O)O)cc21 [Example 99]
EC50 [nM]: 0.6

Molecule: C[C@H]1COC[C@H]1n1c(Cc2cc(F)c(-c3ccc(F)c(OCc4cc(F)c(C#N)cc4F)n3)cc2F)nc2ccc(C(=O)O)cc21 [Example 481]
EC50 [nM]: 0.883

Molecule: Cn1ncc2cc(COc3cccc(-c4cc(F)c(Cc5nc6ccc(C(=O)O)cc6n5C[C@@H]5CCO5)cc4F)n3)ccc21 [Example 526]
EC50 [nM]: 0.509

Molecule: N#Cc1ccc(COc2cccc(-c3cc(F)c(Cc4nc5ccc(C(=O)O)cc5n4C45COC(C4)C5)cc3F)n2)c(F)c1 [Example 66]
EC50 [nM]: 12.9

Molecule: N#Cc1ccc(COc2cccc(-c3cc(F)c(Cc4nc5ccc(C(=O)O)cc5n4[C@H]4COC[C@H]4C4CC4)cc3F)n2)c(F)c1 [Example 192]
EC50 [nM]: 0.444

Molecule: CC1(C)COC[C@H]1n1c(Cc2cc(F)c(-c3cccc(OCc4ccc(F)cc4Cl)n3)cc2F)nc2ccc(C(=O)O)cc21 [Example 464]
EC50 [nM]: 0.172

Molecule: Cc1cc(COc2cccc(-c3cc(F)c(Cc4nc5ccc(C(=O)O)cc5n4[C@@H]4COCC4(C)C)cc3F)n2)c(F)cc1Cl [Example 450]
EC50 [nM]: 1.04

Molecule: COCCn1c(Cc2cc(F)c(-c3cccc(OCc4cc(F)ccc4F)n3)cc2F)nc2ccc(C(=O)O)cc21 [Example 26]
EC50 [nM]: 18.7

###

Below, each of the molecules is paired with its reported EC50 value.
- Assay Target: GLP-1R (Homo sapiens, UniProt P43220)
- Sequence (P43220 24-463): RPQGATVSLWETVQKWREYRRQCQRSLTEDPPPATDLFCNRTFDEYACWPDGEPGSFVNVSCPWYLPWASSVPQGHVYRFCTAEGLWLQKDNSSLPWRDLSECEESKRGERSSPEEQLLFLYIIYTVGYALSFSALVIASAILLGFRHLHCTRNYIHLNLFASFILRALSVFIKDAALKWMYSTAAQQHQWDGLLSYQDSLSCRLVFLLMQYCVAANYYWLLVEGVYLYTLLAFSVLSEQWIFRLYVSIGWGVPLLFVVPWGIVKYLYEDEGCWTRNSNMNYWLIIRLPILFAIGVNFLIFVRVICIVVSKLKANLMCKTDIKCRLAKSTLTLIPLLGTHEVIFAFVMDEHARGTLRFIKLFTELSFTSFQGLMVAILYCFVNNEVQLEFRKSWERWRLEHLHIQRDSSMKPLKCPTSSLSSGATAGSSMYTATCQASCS
- Experimental Protocol: GLP-1R Activation - cAMP Assay
- Type: cell-based
- Settings: cAMP increase in CHO cells stably expressing GLP-1R; each compound run on one of the two cAMP assays (Assay 1 or Assay 2, not specified)

Molecule: COCCn1c(Cc2c(F)cc(-c3cccc(OCc4ccc(-n5ccnn5)cc4F)n3)c(F)c2F)nc2c(F)cc(C(=O)O)cc21 [Example 250]
EC50 (nM): 0.048

Molecule: CC(C)COCCn1c(Cc2cc(F)c(-c3cccc(OCc4ccc(Cl)cc4F)n3)cc2F)nc2ccc(C(=O)O)cc21 [Example 566]
EC50 (nM): 4.09

Molecule: CC1(C)COCC1n1c(Cc2cc(F)c(-c3cccc(OCc4ccc(C#N)cc4F)n3)cc2F)nc2c(C#CC3CC3)cc(C(=O)O)cc21 (stereo not drawn) [Example 48]
EC50 (nM): 0.21

###

- Assay Target: GLP-1R (Homo sapiens)
- Experimental Protocol: GLP-1R Activation - cAMP Assay
- Format: cell-based
- Settings: cAMP increase in CHO cells stably expressing GLP-1R; each compound run on one of the two cAMP assays (Assay 1 or Assay 2, not specified)
log10(EC50) listing for selected compounds.
Observation Type: log10(EC50) (log10 of the value in nM)

Compound: CO[C@H]1COC[C@H]1n1c(Cc2cc(F)c(-c3ccc(F)c(OCc4ccc(Cl)cc4F)n3)cc2F)nc2ccc(C(=O)O)cc21 [Example 534]
log10(EC50): -0.45
//
Compound: O=C(O)c1cc(F)c2nc(Cc3cc(F)c(-c4cccc(OCc5ccc(Cl)cc5F)n4)cc3F)n(C3COCC34CC4)c2c1 (stereo not drawn) [Example 220]
log10(EC50): -0.67
//
Compound: CC1(C)COC[C@H]1n1c(Cc2ccc(-c3ccnc(OCc4ccc(C#N)cc4F)n3)cc2F)nc2c(F)cc(C(=O)O)cc21 [Example 298]
log10(EC50): -0.18
//
Compound: COCCn1c(Cc2c(F)cc(-c3cccc(OCc4ccc(C#N)cc4)n3)c(F)c2F)nc2c(F)cc(C(=O)O)cc21 [Example 378]
log10(EC50): -0.49
//
Compound: CC1(C)COC[C@H]1n1c(Cc2ccc(-c3nc(OCc4ccc(C#N)cc4F)ccc3F)cc2F)nc2ccc(C(=O)O)cc21 [Example 364]
log10(EC50): -0.80
//
Compound: CC1(C)COC[C@H]1n1c(Cc2cc(F)c(-c3cccc(OCc4ccc(C#N)cc4)n3)cc2F)nc2ccc(C(=O)O)cc21 [Example 119]
log10(EC50): -1.51
//
Compound: COc1cc(Cl)ncc1COc1cccc(-c2cc(F)c(Cc3nc4ccc(C(=O)O)cc4n3[C@H]3COCC3(C)C)cc2F)n1 (single isomer, unassigned) [Example 290B]
log10(EC50): -0.12
//
Compound: COC(=O)c1ccc2nc(Cc3cc(F)c(-c4cccc(OCc5ccc(Cl)cc5F)n4)cc3F)n([C@@H]3COCC3(C)C)c2c1 [Example 532]
log10(EC50): 3.57
//
Compound: CC1(C)COC[C@H]1n1c(Cc2cc(F)c(-c3cccc(OCc4ccc(C5CC5)cc4)n3)cc2F)nc2ccc(C(=O)O)cc21 [Example 431]
log10(EC50): -0.42
//
Compound: C[C@H]1COC[C@H]1n1c(Cc2cc(F)c(-c3cccc(OCc4ccc(C#N)cc4F)n3)cc2F)nc2ccc(C(=O)O)cc21 [Example 494]
log10(EC50): -1.29
//
Compound: COc1cc(C#N)ccc1COc1cccc(-c2cc(F)c(Cc3nc4ccc(C(=O)O)cc4n3[C@@H]3COCC3(C)C)cc2F)n1 [Example 461]
log10(EC50): -1.17
//
Compound: Cc1ccc(COc2cccc(-c3cc(F)c(Cc4nc5ccc(C(=O)O)cc5n4C4COCC4(C)C)cc3F)n2)c(Cl)n1 (stereo not drawn) [Example 286]
log10(EC50): -1.00
//
Compound: CO[C@H]1COC[C@H]1n1c(Cc2cc(F)c(-c3cccc(OCc4ccc(C#N)cc4F)n3)cc2F)nc2ccc(C(=O)O)cc21 (single isomer, unassigned) [Example 276]
log10(EC50): -0.97
//
Compound: COCCn1c(Cc2cc(F)c(-c3cccc(OCc4ccc(-c5ccnn5C)nc4)n3)cc2F)nc2ccc(C(=O)O)cc21 [Example 110]
log10(EC50): 0.69
//
Compound: CC1(C)COC[C@H]1n1c(Cc2c(F)cc(-c3ccc(F)c(OCc4ccc(C#N)cc4F)n3)c(F)c2F)nc2ccc(C(=O)O)cc21 [Example 482]
log10(EC50): -1.96
//
Compound: CC1(C)COC[C@H]1n1c(Cc2cc(F)c(-c3cccc(OCc4ccc(C#N)c(F)c4F)n3)cc2F)nc2ccc(C(=O)O)cc21 [Example 492]
log10(EC50): -0.72
//
Compound: CC1(C)COC[C@H]1n1c(Cc2cc(F)c(-c3ccc(Cl)c(OCc4ccc(C#N)cc4F)n3)cc2F)nc2ccc(C(=O)O)cc21 [Example 434]
log10(EC50): -1.24
//
Compound: CC1(C)COC[C@H]1n1c(Cc2cc(F)c(-c3ccc(F)c(OCc4ccc(Cl)cc4F)c3)cc2F)nc2ccc(C(=O)O)cc21 [Example 509]
log10(EC50): -0.84
//
Compound: CC1(C)COC[C@H]1n1c(Cc2cc(F)c(-c3cccc(OCc4ccc(Cl)cc4F)n3)cc2F)nc2ccc(C(=O)O)cc21 [Example 115]
log10(EC50): -0.91
//
Compound: CC1(C)COC[C@H]1n1c(Cc2c(F)cc(-c3ccc(F)c(OCc4ccc(Cl)cc4F)n3)cc2F)nc2ccc(C(=O)O)cc21 [Example 303]
log10(EC50): -0.77
//
Compound: CC1(C)COC[C@H]1n1c(Cc2cc(F)c(-c3cccc(OCc4ccc(C(F)(F)F)cc4)n3)cc2F)nc2ccc(C(=O)O)cc21 [Example 358]
log10(EC50): -0.91
